This collection of values is drawn from patent US7906657B2.

- MEASUREMENT TARGET: Recombinant human HSP90α (Homo sapiens, UniProt P07900)
- ASSAY INFO: radioligand filter binding test with [3H]17AAG (HSP90 inhibition)
- CONDITIONS: competition with [3H]17AAG 0.08 μM; HSP90 1.5 μg/assay; 22° C., 30 min
pIC50: −log10 of the molar value.
REPORTED ENDPOINT: pIC50

>  <COMPOUND>
COc1ccc(Cl)cc1CN(C)C(=O)c1cc(-c2ccnn2-c2ccccc2C)c(O)cc1O [Compound A32]

>  <MEASURED VALUE>
7.28

$$$$
>  <COMPOUND>
COc1ccccc1CN(C)C(=O)c1cc(-c2ccnn2-c2ccccc2C)c(O)cc1O [Compound A9]

>  <MEASURED VALUE>
7.40

$$$$
>  <COMPOUND>
CN(Cc1ccccn1)C(=O)c1cc(-c2ccnn2-c2ccccc2Cl)c(O)cc1O [Compound A60]

>  <MEASURED VALUE>
6.80

$$$$
>  <COMPOUND>
Cc1ccccc1-n1nccc1-c1cc(C(=O)N(C)Cc2ccccc2)c(O)cc1O [Compound A17]

>  <MEASURED VALUE>
7.48

$$$$
>  <COMPOUND>
Cc1ccccc1-n1nccc1-c1cc(C(=O)N(C)Cc2ccc3c(c2)OCO3)c(O)cc1O [Compound A25]

>  <MEASURED VALUE>
7.27

$$$$
>  <COMPOUND>
Cc1ccccc1CN(C)C(=O)c1cc(-c2ccnn2-c2ccccc2C)c(O)cc1O [Compound A23]

>  <MEASURED VALUE>
7.57

$$$$
>  <COMPOUND>
Cc1ccccc1-n1nccc1-c1cc(C(=O)N(C)Cc2ccccc2F)c(O)cc1O [Compound A6]

>  <MEASURED VALUE>
7.27

$$$$
>  <COMPOUND>
CN(Cc1ccccc1)C(=O)c1cc(-c2ccnn2-c2ccccc2Cl)c(O)cc1O [Compound A2]

>  <MEASURED VALUE>
7.36

$$$$

====

- MEASUREMENT TARGET: Recombinant human HSP90α (Homo sapiens)
- ASSAY INFO: radioligand filter binding test with [3H]17AAG (HSP90 inhibition)
- CONDITIONS: competition with [3H]17AAG 0.08 μM; HSP90 1.5 μg/assay; 22° C., 30 min
pIC50: −log10 of the molar value.
REPORTED ENDPOINT: pIC50

>  <MOLECULE>
Cc1ccccc1-n1nccc1-c1cc(C(=O)N(C)Cc2ccc(F)cc2)c(O)cc1O [Compound A5]

>  <MEASUREMENT TARGET>
Recombinant human HSP90α (Homo sapiens)

>  <REPORTED ENDPOINT>
pIC50

>  <MEASURED VALUE>
7.37

$$$$
>  <MOLECULE>
Cc1ccccc1-n1nccc1-c1cc(C(=O)N(C)Cc2c(F)cccc2Cl)c(O)cc1O [Compound A30]

>  <MEASUREMENT TARGET>
Recombinant human HSP90α (Homo sapiens)

>  <REPORTED ENDPOINT>
pIC50

>  <MEASURED VALUE>
7.59

$$$$
>  <MOLECULE>
Cc1ccc(CN(C)C(=O)c2cc(-c3ccnn3-c3ccccc3C)c(O)cc2O)c(C)c1 [Compound A24]

>  <MEASUREMENT TARGET>
Recombinant human HSP90α (Homo sapiens)

>  <REPORTED ENDPOINT>
pIC50

>  <MEASURED VALUE>
7.70

$$$$
>  <MOLECULE>
Cc1ccccc1-n1nccc1-c1cc(C(=O)N(C)Cc2cccc(Br)c2)c(O)cc1O [Compound A20]

>  <MEASUREMENT TARGET>
Recombinant human HSP90α (Homo sapiens)

>  <REPORTED ENDPOINT>
pIC50

>  <MEASURED VALUE>
7.51

$$$$
>  <MOLECULE>
Cc1ccccc1-n1nccc1-c1cc(C(=O)N(C)Cc2cccc(F)c2)c(O)cc1O [Compound A7]

>  <MEASUREMENT TARGET>
Recombinant human HSP90α (Homo sapiens)

>  <REPORTED ENDPOINT>
pIC50

>  <MEASURED VALUE>
7.52

$$$$
>  <MOLECULE>
Cc1ccccc1-n1nccc1-c1cc(C(=O)N(C)Cc2ccc(Cl)cc2Cl)c(O)cc1O [Compound A35]

>  <MEASUREMENT TARGET>
Recombinant human HSP90α (Homo sapiens)

>  <REPORTED ENDPOINT>
pIC50

>  <MEASURED VALUE>
6.66

$$$$
>  <MOLECULE>
COc1ccc(CN(C)C(=O)c2cc(-c3ccnn3-c3ccccc3C)c(O)cc2O)c(OC)c1 [Compound A31]

>  <MEASUREMENT TARGET>
Recombinant human HSP90α (Homo sapiens)

>  <REPORTED ENDPOINT>
pIC50

>  <MEASURED VALUE>
6.49

$$$$
